Values compiled from PubChem BioAssay.

Test: osmotic lysis modulators in infected erythrocytes, primary screen, PSAC antagonist project, cell-based, P. falciparum Indochina, OD700, 3 h (AID 1156)
Conditions: higher = more signal, called active from +8 up or from −8 down
property-measured: z-score

1. COc1cc(CO)cc(I)c1O[C@H]1C=C(C(=O)NCCO)C[C@@H](NCc2ccc(F)cc2)[C@@H]1O | 4.03
2. O=C(NCCCCCNC(=O)/C(Cc1ccccc1)=N/O)OCc1ccccc1 | 0.003
3. COc1ccc([Si](C)(C)[C@H]2[C@H](CC(=O)N(CCO)Cc3ccccc3)O[C@@]3(C(=O)N(Cc4cccc(N5CCOC5=O)c4)c4ccccc43)[C@@H]2C)cc1 | 1.68
4. C=C(C)c1cc2c(c(CCCCCC)n1)[Si](C(C)C)(C(C)C)OC2 | -0.0223
5. O=C1C2C=CC(C(O)c3ccc(Br)cc3)N(Nc3ccccc3F)C2C(=O)N1c1ccccc1 (stereo not given) | -0.834
6. CC(C)(C)N1CC=CC23O[C@@H]4C=CCOC(=O)[C@@H]4[C@H]2C(=O)N(CCCCCCO)[C@@H]3C1=O (stereo not given in full) | 0.935
7. CC(C)C[C@@H]1NC(=O)[C@@H]2C[C@H](C(=O)NCCCCN(C)C)[C@H](c3cccc(OCCO)c3)N2C1=O | 0.931
8. C[C@@H]1NC(=O)[C@@]23C(=O)N[C@@H](Cc4ccccc4)C2[C@H](C)[C@@]2(C)O[C@H]2C3/C=C/C/C=C\CNC(=O)[C@@H]2CCCN2C1=O (stereo not given in full) | -1.12
9. CN1C(=O)C2C=CC(C(O)c3ccccn3)N(N(c3ccccc3)c3ccccc3)C2C1=O (stereo not given) | 0.303
10. C=C[C@@H](COC(C)=O)N(C(=O)OC(C)(C)C)S(=O)(=O)c1ccc(Br)cc1 | 0.14
11. COCCOC(=O)N1C(=O)[C@@]2(c3ccccc31)[C@H](C(=O)N1CCN(c3ncccn3)CC1)[C@H]1C(=O)O[C@H](c3ccccc3)[C@H](c3ccccc3)N1[C@@H]2c1ccc(O)cc1 | 0.481
12. CCCCCCCCCCC(O)C1C=CC2C(=O)N(C)C(=O)C2N1Nc1ccc([N+](=O)[O-])cc1[N+](=O)[O-] (stereo not given) | -0.607
13. CN1C(=O)C2C=CC(C(O)c3cccc(O)c3)N(Nc3ccccc3)C2C1=O (stereo not given) | -0.606
14. COc1ccccc1CN1C(=O)c2ccccc2[C@](Cc2ccccc2I)(C(=O)NCC(F)(F)F)[C@@H]1c1ccc(CO)cc1 | 2.38
15. CC(CO)N1C(=O)[C@@H]2[C@H]3C(=O)OCC=C[C@H]3OC23C=CCN(Cc2ccccc2)C(=O)[C@@H]13 (stereo not given in full) | -0.355
16. COCCOC(=O)N1C(=O)[C@@]2(c3cc(C#Cc4ccc(OC)cc4)ccc31)[C@H](C(=O)Nc1nc3ccccc3s1)[C@H]1C(=O)O[C@H](c3ccccc3)[C@H](c3ccccc3)N1[C@@H]2c1ccc(O)cc1 | 1.2
17. COc1ccc([Si](C)(C)[C@@H]2[C@@H](CC(=O)N(CCO)Cc3ccccc3)O[C@]3(C(=O)N(Cc4cccc(N5C(=O)c6cccc7cccc5c67)c4)c4ccccc43)[C@H]2C)cc1 | -0.667
18. CCCCC(=C=CC[C@@H](O)c1ccccc1OCCO)C[C@@H](O)COCc1ccccc1 | -0.255
19. CC(C)N1C(=O)C[C@@](C(=O)NCCCN(C)C)(c2ccc([N+](=O)[O-])cc2)[C@H]1c1ccc(CO)cc1 | 1.82
20. COCCCNC(=O)[C@]1(CCS(=O)(=O)c2ccccc2)N=C(c2ccc(OCCCO)cc2)O[C@@H]1c1ccccc1CN=[N+]=[N-] | 1.41
21. COCCOC(=O)N1C(=O)[C@@]2(c3cc(C#Cc4ccc(OC)cc4)ccc31)[C@H](C(=O)Nc1nc3ccccc3s1)[C@H]1C(=O)O[C@H](c3ccccc3)[C@H](c3ccccc3)N1[C@@H]2c1ccc(OCCO)cc1 | 1.26
22. [N-]=[N+]=Nc1ccccc1C[C@]1(C(=O)N2CCOCC2)N=C(c2ccc(OCCCO)cc2)O[C@H]1c1ccccc1 | 2.84
23. COc1ccc([Si](C)(C)[C@H]2[C@H](CCO)O[C@@]3(C(=O)N(Cc4cccc(N5C(=O)COc6ccccc65)c4)c4ccccc43)[C@@H]2C)cc1 | 1.7
24. CCC[C@@H]1C[C@@]1(CCC)[C@@H](NC(=O)OCc1ccccc1)c1ccc(-c2ccccc2)cc1 | -0.221
25. [N-]=[N+]=NCc1ccccc1[C@H]1OC(c2ccc(OCCCO)cc2)=N[C@@]1(CCS(=O)(=O)c1ccccc1)C(=O)N1CCCCC1 | 3.2
26. COCCCNC(=O)[C@@]1(Sc2ccc(C)cc2)CC(=O)N(C2CCCCC2)[C@@H]1c1ccc(CO)cc1 | 0.0051
27. CC(C)C(=C=CC[C@H](O)c1cccc(OCCO)c1)C[C@H](O)c1cc(Cl)cc(Cl)c1O | 0.667
28. [N-]=[N+]=NCc1ccccc1C[C@@]1(C(=O)N2CCOCC2)N=C(c2ccc(OCCCO)cc2)O[C@@H]1c1ccccc1 | 2.37
29. O=C1C2C=CC(C(O)c3ccccc3)N(Nc3ccccc3F)C2C(=O)N1c1ccccc1 (stereo not given) | 0.368
30. COc1ccc(-c2cc3c(c(CCc4ccccc4)n2)[Si](C(C)C)(C(C)C)OC3)cn1 | -0.119

###

Test: small-molecule binders of probe aNOTCH3, primary screen, biochemical, small-molecule microarray, 635/667 nm fluorescence (AID 1120);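 note: probe is a biotin-tagged antibody raised against NOTCH3 rather than NOTCH3 protein; score merges spot fluorescence near 667 nm with spot signal to noise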
Conditions: higher = more signal
Below: a set of entries, each annotated with reported composite z-score.
property-measured: composite z-score

1) C[C@@H]1ON(c2ccc(C(=O)OC(C)(C)C)cc2)[C@H](c2ccc(O)cc2)[C@H]1C(=O)N1C(=O)OC[C@H]1Cc1ccccc1 | 0.0836
2) CCCCO[C@H]1C[C@H]2C(I)=C[C@@H]1C(=O)[C@]21CO1 | -0.0311
3) CCCNC(=O)[C@@H]1c2ccccc2C(=O)N(C(C)C)[C@H]1c1ccc(CO)cc1 | -0.0728
4) C=CCC(OC(C)=O)[C@@H]1[C@@H](N(Cc2ccc(-c3cccc(C(F)(F)F)c3)o2)C(=O)c2ccc(C)cc2)c2cc(OCCCO)ccc2N1C(=O)c1ccc2ccccc2c1 (stereo partly drawn) | -0.0377
5) CN1C(=O)C2C=CC(C(O)c3cccc4ccccc34)N(N3CCCCC3)C2C1=O (stereo not drawn) | 0.246
6) COC(=O)[C@@]1(Cc2ccc(F)cc2)[C@H]2c3cc(C(=O)N4CCCC4)n(CCN4CNCC4=O)c3C[C@H]2CN1C(=O)c1ccccc1 | 0.323
7) COC(=O)C(CC#Cc1ccc2c(c1)[C@]1(C(=O)N2)[C@H](C(=O)N2CCN(c3ncccn3)CC2)[C@H]2C(=O)O[C@H](c3ccccc3)[C@H](c3ccccc3)N2[C@@H]1c1ccc(OCCO)cc1)C(=O)OC | 0.207
8) [N-]=[N+]=Nc1ccccc1[C@H]1OC(c2ccc(OCCCO)cc2)=N[C@@]1(Cc1ccccc1)C(=O)N1CCCCC1 | 0.369
9) COCCOC(=O)N1C(=O)[C@@]2(c3cc(C#CCC(C(=O)OC)C(=O)OC)ccc31)[C@H](C(=O)N1CCc3cc(OC)c(OC)cc3C1)[C@H]1C(=O)O[C@H](c3ccccc3)[C@H](c3ccccc3)N1[C@@H]2c1ccc(OCCO)cc1 | 0.15
10) Cc1ccc(S[C@]2(C(=O)NCC(F)(F)F)CC(=O)N(C3CCCCC3)[C@@H]2c2ccc(CO)cc2I)cc1 | -0.046
11) CCOC(=O)C[C@H]1[C@H](OC(=O)Cc2ccc3c(c2)OCO3)[C@@H](NC(=O)Cc2ccc(OC)cc2)c2cc(OCCCO)ccc2N1C(=O)c1ccc2ccccc2n1 | -0.0768
12) C=CCNC(=O)[C@H]1[C@@H]2C(=O)O[C@@H](c3ccccc3)[C@@H](c3ccccc3)N2[C@@H](c2ccc(O)cc2)[C@]12C(=O)N(C(=O)OCCOC)c1ccccc12 | -0.091
13) COCCOC(=O)N1C(=O)[C@@]2(c3cc(C#CC4=CCCCC4)ccc31)[C@H](c1ccc(OCCO)cc1)N1[C@H](c3ccccc3)[C@H](c3ccccc3)OC(=O)[C@H]1[C@@H]2C(=O)NC[C@H](O)c1ccccc1 | 0.164

###

Assay: CREB reporter modulators under forskolin, primary screen, cell-based, PC12, CRE-LacZ reporter, forskolin-stimulated (AID 1146);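 note: PC12 cells with 6xCRE LacZ reporter stimulated by forskolin 10 µM; beta-galactosidase reporter signal reflecting CREB driven transcription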
Conditions: luminescence, 4.5 h, higher = more signal, called active from +8 up or from −8 down
Readings of z-score for the listed compounds
property-measured: z-score

1. CC(C)OC(=O)C=C1C[C@@H](c2ccc(C(F)(F)F)cc2)O[C@@H](c2ccc(C(F)(F)F)cc2)O1 | -0.163
2. C=C[C@@H](OC)[C@H](OC(=O)Nc1ccc(SC)cc1)c1ccc(O)c(F)c1 | 0.425
3. COc1ccccc1CN1C(=O)c2ccccc2[C@@]2(Cc3ccccc3N(CC(F)(F)F)C2=O)[C@@H]1c1ccc(CO)cc1 | -0.173
4. CCOC(=O)C[C@H]1[C@H](OC(=O)c2ccccc2-c2ccccc2)[C@@H](NC(=O)c2ccc(-c3ccccc3)cc2)c2cc(OCCCO)ccc2N1C(=O)c1ccc2ccccc2n1 | 0.254
